target.or.system: Neurogenic locus notch homolog protein 3 (Homo sapiens)
experimental.details: small molecules binding NOTCH3 protein – biochemical, 635/667 nm fluorescence, primary screen (AID 1096)
condition.summary: small-molecule microarray, 635 nm fluorescence, higher = more signal
quantity.kind: composite z-score
// return a plain number; no unit text

Worked examples, 4 compounds total:
{"compound": "CN(C)C(=O)[C@@]1(CCC(=O)OC(C)(C)C)COC(c2ccc(OCCCO)cc2)=N1", "composite z-score": 0.0673}
{"compound": "COCCCNC(=O)[C@@]1(Cc2ccccc2N=[N+]=[N-])N=C(c2ccc(OCCCO)cc2)O[C@H]1c1ccccc1CN=[N+]=[N-]", "composite z-score": 1.07}
{"compound": "COC(=O)[C@@]1(Cc2ccc(F)cc2)[C@H]2c3cc(C(=O)N(C)C)n(Cc4ccc(C)c(F)c4F)c3C[C@H]2CN1C(=O)c1ccccc1", "composite z-score": 0.876}
{"compound": "CC(C)CNC(=O)[C@@]1(c2ccc([N+](=O)[O-])cc2)CC(=O)N(C(C)C)[C@@H]1c1ccc(CO)cc1", "composite z-score": -0.143}

Which measured composite z-score value corresponds to `Cc1ccc(S[C@]2(C(=O)NCc3ccccc3)CC(=O)N(C3Cc4ccccc4C3)[C@@H]2c2ccc(CO)cc2I)cc1` ?
-0.288

composite z-score lookup needed for `COc1ccc(C(=O)Nc2ccc(CN3C(=O)[C@]4(O[C@H](CCn5cc([C@H](O)c6ccccc6)nn5)[C@@H]([Si](C)(C)c5ccc(OC)cc5)[C@@H]4C)c4ccccc43)cc2)cc1` , thanks.
-0.047

// lookup composite z-score for `COc1ccc([Si](C)(C)[C@@H]2[C@@H](CC(=O)N3Cc4ccccc4C[C@H]3CO)O[C@]3(C(=O)N(Cc4cccc(N5CCCCC5=O)c4)c4ccccc43)[C@H]2C)cc1`
1.07

For the compound shown here, CC(C)C[C@@H]1NC(=O)[C@@]23C(=O)N[C@@H](Cc4ccccc4)C2[C@H](C)[C@@]2(C)O[C@H]2C3/C=C/C/C=C\CNC(=O)[C@@H]2CCCN2C1=O (some centres undefined) , give the reported composite z-score.
-0.46

# input compound: CN1C(=O)C2C=CC(C(O)COCc3ccccc3)N(Nc3ccccc3)C2C1=O (centres undefined) ; wanted: its composite z-score
0.896

----------
experimental.details: plasmodial surface anion channel blockers, osmotic lysis – cell-based, P. falciparum Indochina, OD700, 18 h, primary screen (AID 1157)
condition.summary: P. falciparum Indochina infected erythrocytes, osmotic lysis OD700, 18 h; higher = more signal, called active from +8 up or from −8 down
quantity.kind: z-score
// no unit string in output, number only

Below, 2 compounds whose answers are already recorded.
{"smiles.repr": "CC(C)(C)OC(=O)CC[C@@]1(C(=O)N2CCCCC2)N=C(c2ccc(OCCCO)cc2)O[C@@H]1c1ccccc1CN=[N+]=[N-]", "z-score": 4.6}
{"smiles.repr": "COc1ccc(C#Cc2ccc3c(c2)[C@]2(C(=O)N3)[C@H](c3ccc(OCCO)cc3)N3[C@H](c4ccccc4)[C@H](c4ccccc4)OC(=O)[C@H]3[C@@H]2C(=O)N2CCN(c3ncccn3)CC2)cc1", "z-score": -0.856}

Bench note: what z-score did `O=C1C[C@@](C(=O)O)(c2ccc([N+](=O)[O-])cc2)[C@@H](c2ccc(CO)cc2)N1CC12CC3CC(CC(C3)C1)C2` show?
0.279

Give its z-score value. Item: `C=CCN1C(=O)[C@@]2(O[C@@H](CCn3cc([C@H](O)c4ccccc4)nn3)[C@H]([Si](C)(C)c3ccc(OC)cc3)[C@H]2C)c2cc(NC(=O)c3ccc(OC)cc3)ccc21`
1.38

Entry `CO[C@H]1O[C@H](CO)[C@@H](OC(=O)Nc2ccc(C(F)(F)F)cc2)[C@H](OC(=O)Nc2ccccc2)[C@H]1OC(=O)Nc1ccccc1` : reported z-score = ?
0.887

Returns the measured z-score for the input compound. Input: `COc1ccc(CCNC(=O)[C@@H]2c3ccccc3C(=O)N(Cc3ccccc3)[C@H]2c2ccc(CO)cc2)cc1`
-0.508

----------
// values below are reported z-score
experimental.details: forskolin-driven CRE-LacZ activity in PC12 – cell-based, CRE-LacZ reporter, forskolin-stimulated, primary screen (AID 1146);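 also: PC12 cells with 6xCRE LacZ reporter stimulated by forskolin 10 µM; beta-galactosidase reporter signal reflecting CREB driven transcription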
condition.summary: luminescence, 4.5 h, higher = more signal, called active from +8 up or from −8 down
Output: the number by itself.

Worked examples follow.
{"compound": "O=C1O[C@@H](c2ccccc2)[C@@H](c2ccccc2)N2[C@@H](c3ccc(O)cc3)[C@]3(C(=O)Nc4ccc(C#CC5=CCCCC5)cc43)[C@@H](C(=O)Nc3nc4ccccc4s3)[C@H]12", "z-score": -1.09}
{"compound": "COc1ccc([Si](C)(C)[C@H]2[C@H](CC(=O)N3CCC[C@H]3CO)O[C@@]3(C(=O)N(Cc4ccc(N5C(=O)c6cccc7cccc5c67)cc4)c4ccccc43)[C@@H]2C)cc1", "z-score": -0.594}
{"compound": "CCN(CC)c1ccc(N2CC=CC34O[C@@H]5/C=C\\CCCOC(=O)C5[C@H]3C(=O)N(CCCCCO)[C@@H]4C2=O)cc1 (stereo partly specified)", "z-score": 0.417}
{"compound": "C=CCNC(=O)[C@@H]1[C@H]2C(=O)O[C@H](c3ccccc3)[C@H](c3ccccc3)N2[C@H](c2ccc(O)cc2)[C@@]12C(=O)Nc1ccc(C#CCCO)cc12", "z-score": -0.612}
{"compound": "CN(C)CCCN1C(=O)[C@@]2(Cc3ccccc31)c1ccccc1C(=O)N(Cc1ccccc1)[C@H]2c1ccc(CO)cc1", "z-score": -0.665}

Query compound follows.
Name the recorded z-score for CCOc1cc(C(O)C2C=CC3C(=O)NC(=O)C3N2Nc2ccccn2)ccc1O (stereo unspecified) .
0.153

----------
Reported composite z-score by item:
experimental.details: binders of probe aHhip on microarray, primary screen, stem cell growth factor project, biochemical, small-molecule microarray, fluorescence 635/667 (AID 1087);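 also: score merges spot fluorescence at 667nm with spot signal to noise ratio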
condition.summary: higher = more signal
Answer field: number only, no words.

{"molecule": "COCCOC(=O)N1C(=O)[C@@]2(c3cc(C#CCC(C(=O)OC)C(=O)OC)ccc31)[C@H](C(=O)N1CCCCCCC1)[C@H]1C(=O)O[C@H](c3ccccc3)[C@H](c3ccccc3)N1[C@@H]2c1ccc(O)cc1", "composite z-score": 0.801}
{"molecule": "COCCCNC(=O)[C@@]1(Cc2ccccc2)COC(c2ccc(OCCCO)cc2)=N1", "composite z-score": -0.135}
{"molecule": "OCc1ccc(-c2cc[n+](Cc3cccc(OC(F)(F)F)c3)cc2)cc1", "composite z-score": -0.0994}
{"molecule": "C=CCNC(=O)[C@H]1[C@@H]2C(=O)O[C@@H](c3ccccc3)[C@@H](c3ccccc3)N2[C@@H](c2ccc(OCCO)cc2)[C@]12C(=O)N(C(=O)OCCOC)c1ccc(C#CC3=CCCCC3)cc12", "composite z-score": -0.0296}
{"molecule": "CC(C)C[C@@H]1NC(=O)[C@@]23C(=O)N[C@@H](Cc4ccccc4)C2[C@H](C)[C@@]2(C)O[C@H]2C3/C=C/C/C=C\\CNC(=O)[C@@H]2CCCN2C1=O (stereo partly specified)", "composite z-score": -0.0994}

Would you kindly look at the next entry?
Sample `C=C(/C(=C/C[C@@H](OC(=O)c1ccncc1)c1cccc(OCCO)c1)c1cc(C(=O)OC)ccc1OC)C(C)C` — what was its composite z-score?
-0.0994

----------
experimental.details: probe aDKK1 binding to arrayed compounds – biochemical, biotinylated probe, 635/667 nm fluorescence, primary screen (AID 1099);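 also: score merges 667nm spot fluorescence with signal to noise across triplicate slides; reference of the scale not given here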
condition.summary: small-molecule microarray, higher = more signal
quantity.kind: composite z-score
Would you mind answering with just the numeric figure?

{"compound": "O=C1CSC(c2cccc([N+](=O)[O-])c2)N1c1ccccc1 (stereo not drawn)", "composite z-score": 0.136}
{"compound": "CC(C)(C)OC(=O)CC[C@@]1(C(=O)N2CCCCC2)N=C(c2ccc(OCCCO)cc2)O[C@@H]1c1ccccc1CN=[N+]=[N-]", "composite z-score": 0.754}
{"compound": "O=C(C=C(CC(O)c1cccc(Cl)c1)OCCF)OCCF (stereo not drawn)", "composite z-score": 0.558}

So what does the record say about composite z-score for `COC(=O)[C@@]1(Cc2ccc(F)cc2)[C@H]2c3cc(C(=O)N4CCCC4)n(Cc4ccccc4)c3C[C@H]2CN1C(=O)c1ccccc1` ?
0.411

Query: composite z-score; subject: `C[N+](C)(C)CCCC[C@@H]1NC(=O)[C@@H]2C[C@H](C(=O)NCCCCCNC(=O)CS)[C@H](c3cccc(OCCO)c3)N2C1=O`
-0.14

Give its composite z-score value. Item: O=C1OCCC=C[C@H]2OC34C=CCN(Cn5nnc6ccccc65)C(=O)[C@H]3N(CCCCCO)C(=O)[C@@H]4C12 (stereo partly drawn)
-0.181

Quick one: composite z-score of `C[C@H]1ON(c2ccccc2)[C@@H](c2ccccc2)[C@@H]1C(=O)N1C(=O)OC[C@@H]1c1ccccc1` ?
-0.138

Give its composite z-score value. Item: `C=CC[C@@]1(C(=O)NCCN2CCOCC2)N=C(c2ccc(OCCCO)cc2)O[C@@H]1c1ccccc1`
0.449

FYI, the data here is from PubChem BioAssay.
